Target: hD2 recombinant receptor (human dopamine receptor type 2, long variant, CHO-Gα16-hD2L cells) (Homo sapiens (Human), UniProt P14416)
Assay: cell-based
Conditions: D2 fpKi, functional pKi; antagonism of dopamine EC80 calcium response (FLIPR)
pKi: −log10 of the molar value. Counter-ions that a name gives are not always drawn.
quantity_measured: pKi

Take a look at these entries with their results.
| compound | pKi |
| --- | --- |
| Cn1c(SCCCN2CC[C@]3(CC3c3ccccc3)C2)nnc1C1CCOCC1 (stereo partly drawn) | < 5.00 |
| Cn1c(SCCCN2CC[C@]3(C[C@@H]3c3ccccc3)C2)nnc1C1CCOCC1 (single isomer, unassigned) [Example 83, hydrochloride] | < 5.00 |

# ---- query compound ----
Problem: Look up pKi: Cn1c(CCCCN2CC[C@]3(CC3c3ccc(C(F)(F)F)cc3)C2)nnc1C1CCOCC1 (stereo partly drawn)
Result: < 5.00
